Hi there, I'd appreciate the recorded Antibacterial Activity rating for every entry that follows.
system: Xanthomonas vesicatoria; type: cell-based; details: 100 ppm; subcultures 72 hours at 37° C; further: key: 0: No Effect; 9: Kill of Bacteria; 5: Stasis, but not Kill of all Bacteria
Give your answer as a number; write no unit.

Q: Returns the measured Antibacterial Activity rating for the input compound. Input: CN(C)C(=S)SC(C[N+](=O)[O-])c1ccc2c(c1)OCO2 (stereo not shown)
Result: 5

Q: // returns reported Antibacterial Activity rating for input CC(=O)C(CSC(=S)N(C)C)SC(=S)N(C)C (stereo not shown) [Example 10, Acetylethylene Dimethyldithiocarbamate]
Result: 5

Q: Which measured Antibacterial Activity rating value corresponds to CN(C)C(=S)SC(C[N+](=O)[O-])c1ccc(Cl)cc1Cl (stereo not shown) ?
Result: 0

Q: Field request: Antibacterial Activity rating | item: CN(C)C(=S)SC(C[N+](=O)[O-])c1ccccc1Cl (stereo not shown)
Result: 5

Q: Entry CCC(CSC(=S)N(C)C)[N+](=O)[O-] (stereo not shown) [Example 6, 2-Nitrobutyl Dimethyldithiocarbamate] : reported Antibacterial Activity rating = ?
Result: 9

Q: Please look up its Antibacterial Activity rating: CN(C)C(=S)SC(c1ccc(Cl)cc1Cl)C(C(c1ccc(Cl)cc1Cl)N(C)C)[N+](=O)[O-] (stereo not shown)
Result: 0

Q: Consider the compound CN(C)C(=S)SC(C[N+](=O)[O-])c1ccc(Br)cc1 (stereo not shown) and give its measured Antibacterial Activity rating.
Result: 0

Q: // query Antibacterial Activity rating value for entry CN(C)CC(C)(CSC(=S)N(C)C)[N+](=O)[O-] (stereo not shown)
Result: 5

Q: Value lookup for Antibacterial Activity rating; key = CC(C(SC(=S)N(C)C)c1ccccc1)[N+](=O)[O-] (stereo not shown)
Result: 0

Q: So what does the record say about Antibacterial Activity rating for "CC(=O)C(CSC(=S)N(C)C)=C(C)O" ?
Result: 0

Q: I would be grateful if you could share the reported Antibacterial Activity rating for CN(C)C(=S)SC(C[N+](=O)[O-])c1ccccc1 (stereo not shown) .
Result: 5

Q: I have this compound here, CN(C)C(=S)SCC(SC(=S)N(C)C)C(=O)c1ccccc1 (stereo not shown) , and I need its recorded Antibacterial Activity rating.
Result: 0

Q: Name the recorded Antibacterial Activity rating for "CN(C)C(=S)SCC(CSC(=S)N(C)C)[N+](=O)[O-]" .
Result: 0

Q: Given the entry CC(C)c1ccc(C(C[N+](=O)[O-])SC(=S)N(C)C)cc1 (stereo not shown) , report its measured Antibacterial Activity rating.
Result: 0

Q: Any idea what Antibacterial Activity rating was measured for COc1ccc(C(C[N+](=O)[O-])SC(=S)N(C)C)cc1OC (stereo not shown) ?
Result: 5

Q: Entry under review: CN(C)C(=S)SC(C[N+](=O)[O-])c1cccs1 (stereo not shown) . Reported Antibacterial Activity rating?
Result: 0
